For each of the binders below, state its pKd.
# target_or_system: T1, PSD-95 PDZ1 (aa 61-151) (UniProt P78352 61-151)
# T1 construct: postsynaptic density protein 95 (PSD-95), PDZ1, aa 61-151
# T1 sequence (P78352 61-151): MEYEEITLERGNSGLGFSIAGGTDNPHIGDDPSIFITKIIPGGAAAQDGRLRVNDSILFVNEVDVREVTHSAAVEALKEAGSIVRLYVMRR
# method: SPR; PDZ domain immobilised by amine coupling (CM5 for PDZ1 and PDZ2, CM4 for PDZ3), peptides injected; Biacore X100, 25.0°C, HBS-EP+ (10 mM HEPES pH 7.4, 150 mM NaCl, 3 mM EDTA, 0.05% Surfactant P-20); 1 mM DTT for peptides with a cysteine; Kd from steady-state responses, 1:1 model with a linear component
# details: both partners purified
Answers are plain numbers, as −log10 of the molar value.

{"columns": ["binder", "pKd"],
 "data": [
  ["YDDRGTCASRISTL (N-terminal linker; YDDR because the C-tail has no Tyr or Trp, by the rule of the methods; somatostatin receptor 1, mouse, 10 C-terminal aa; also called mSSTR1; source: synthetic peptide (Schafer-N)) [SSTR1 C-tail peptide (mouse)]", 3.57],
  ["YDDRNLKAGRETTV (N-terminal linker (solubility, concentration determination); YDDR because the C-tail has no Tyr or Trp, by the rule of the methods; source: synthetic peptide (Schafer-N)) [KIF1Bα C-tail peptide (human), unlabeled]", 5.66],
  ["YDDRSVVSERISSV (N-terminal linker; YDDR because the C-tail has no Tyr or Trp, by the rule of the methods; 5-hydroxytryptamine receptor 2C, human, 10 C-terminal aa; source: synthetic peptide (Schafer-N)) [5-HTR2C C-tail peptide (human)]", 3.80],
  ["YDDRQDIIDLQTEV (N-terminal linker; YDDR because the C-tail has no Tyr or Trp, by the rule of the methods; BAI1 receptor, human, 10 C-terminal aa; also called BAI1 receptor; source: synthetic peptide (Schafer-N)) [BAI1 C-tail peptide (human)]", 3.92],
  ["YDDRDGVNEKVSCV (N-terminal linker; YDDR because the C-tail has no Tyr or Trp, by the rule of the methods; 5-hydroxytryptamine receptor 2A, human, 10 C-terminal aa; also called 5-hydroxytryptamine receptor 2A; source: synthetic peptide (Schafer-N)) [5-HTR2A C-tail peptide (human)]", 3.20]
]}

Req: What does the data say about its pKd? Entry: YDDRGTCTSRITTL (N-terminal linker; YDDR because the C-tail has no Tyr or Trp, by the rule of the methods; somatostatin receptor 1, human, 10 C-terminal aa; also called hSSTR1; source: synthetic peptide (Schafer-N)) [SSTR1 C-tail peptide (human)]
Resp: 4.08
